Entries annotated with measured IC50
- target_under_test: Nonstructural protein 3 (Zika virus, UniProt A0A024AXB9)
- Sequence (A0A024AXB9 whole entry): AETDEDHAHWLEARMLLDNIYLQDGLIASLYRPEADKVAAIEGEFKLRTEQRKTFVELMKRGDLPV
- assay_explanation: Functional biochemical assay to identify treatments for viral infectious disease that targets Zika NS2B-NS3 protease. Utilizing a direct enzyme activity measurement method, reading the fluorescence intensity is used to characterize the relative potency of inhibitors as IC50.
- Parameters: species or system PRVABC59

{"columns": ["smiles_notation", "IC50"],
 "data": [
  ["O=C(O)c1cc(Cl)ccc1NS(=O)(=O)c1ccc(NC2CCNCC2)nc1", "> 99.5 µM"],
  ["Cn1cc(C(=O)Nc2cccc(CN)c2)c(-c2cnccn2)n1", "> 99.5 µM"],
  ["O=C1CCc2cc(C(=O)Nc3ccc4c(c3)CNC4)cc(F)c2N1", "1.49 µM"],
  ["NCc1cccc(NC(=O)c2ccc(OCC(F)(F)F)c(NC(=O)OCc3ccccc3)c2)c1", "48.7 µM"],
  ["NCc1cccc(NC(=O)[C@H](NC(=O)OCc2ccccc2)C2CCN(S(=O)(=O)c3ccccc3)CC2)c1", "> 99.5 µM"],
  ["NCCCc1ccnc(NC(=O)c2nnc(C3CC3)s2)c1", "> 25 µM"],
  ["C[C@H]1CNC[C@@H]1c1ccc(NC(=O)c2cc(Cl)cc(NC(=O)OCc3ccccc3)c2)cc1", "7.26 µM"],
  ["CC(C)c1ccc(Cl)cc1C(=O)Nc1ccc2c(c1)CNC2", "2.34 µM"],
  ["Cc1ccc(Oc2ncccc2C#N)c(-c2ccc3[nH]c(C(=O)O)cc3c2)c1", "> 99.5 µM"],
  ["O=C(Nc1ccc2c(c1)CNC2)c1cc(F)cc2[nH]c(CCc3cccnc3)nc12", "0.131 µM"],
  ["CC(C)(C)NS(=O)(=O)c1cccc(C(=O)Nc2cccc(CN)c2)c1", "> 99.5 µM"],
  ["Cc1c(C(=O)Nc2cc(-c3cccnc3)ccn2)cc(C#N)n1C", "> 25 µM"],
  ["O=C(Nc1cc(Cl)cc(C(=O)Nc2ccc3c(c2)CNC3=O)c1)OCc1ccccc1", "> 99.5 µM"],
  ["O=C(Nc1cc(Cl)cc(-c2cnn(Cc3ccc(C(=O)O)cc3)c2)c1)OCc1ccccc1", "39.4 µM"],
  ["CNC(=O)[C@H](Nc1cc(CN)cc(C(=O)O)c1)c1cc(Cl)cc(NC(=O)OCc2ccccc2)c1", "1.16 µM"],
  ["CN(C)Cc1cccc(C(=O)Nc2cccc(CN)c2)c1", "23.8 µM"],
  ["O=C(Nc1ccc2c(c1)CNC2)N1CC(F)(F)CC2(CCC2)C1", "> 25 µM"],
  ["NCc1cccc([C@H](C#CCO)Nc2cc(Cl)cc(NC(=O)OCc3ccccc3)c2)c1", "15.6 µM"],
  ["NCc1cccc(NC(=O)c2cc(Cl)cc(NC(=O)OCc3ccccc3)c2)c1", "4.79 µM"],
  ["NCc1cccc(NC(=O)[C@@H](NC(=O)OCc2ccccc2)c2cccc(OC[C@H]3CCCO3)c2)c1", "> 99.5 µM"],
  ["O=C(Nc1ccc2c(c1)CNC2)c1cc(F)c2[nH]ccc2c1", "0.274 µM"],
  ["Cc1c(C(=O)Nc2cc(CN(C)C)ccn2)cc(C2CC2)n1C", "> 25 µM"],
  ["O=C(Nc1ccc2c(c1)C(=O)OC2)c1cc(CC2CCNCC2)ccc1F", "> 25 µM"],
  ["NCc1cc(NC(=O)c2cc(Cl)cc(NC(=O)OCc3ccccc3)c2)cc(-c2ccc3c(c2)C[C@H](C(=O)O)CO3)c1", "> 99.5 µM"],
  ["Cn1nc([C@H](C#N)Nc2cccc([C@H]3CCOC3)c2)cc1C1CC1", "> 25 µM"],
  ["NCc1cccc(NC(=O)[C@H](NC(=O)OCc2ccccc2)c2cccc(OCc3ccncc3)c2)c1", "> 99.5 µM"],
  ["O=C(O)c1cscc1NS(=O)(=O)c1ccc(Oc2ccccc2Cl)cc1", "> 99.5 µM"],
  ["O=C(N[C@@H](C(=O)Nc1n[nH]c2c1CNC21CC1)c1ccc(OCc2ccccc2)cc1)OCc1ccccc1", "> 99.5 µM"],
  ["C[C@H]1CCCCN1C(=O)Cn1ccnc(N2CC[C@@H](CO)C2)c1=O", "> 99.5 µM"],
  ["NCc1cccc(NC(=O)[C@@H]2CCCCN2)c1", "> 99.5 µM"],
  ["CN1CCc2nc(NC(=O)[C@@H](NC(=O)OCc3ccccc3)c3ccc(OCc4ccccc4)cc3)sc2C1", "> 99.5 µM"],
  ["NCc1ccc2c(c1)N(C(=O)[C@@H](NC(=O)OCc1ccccc1)c1ccc(OCc3ccccc3)cc1)CC2", "12.3 µM"],
  ["O=C(NCC1CC1)[C@H]1CCCC[C@H]1NS(=O)(=O)c1ccc(Oc2ccccc2Cl)cc1", "> 99.5 µM"],
  ["CCn1c(=O)c(N2CCC[C@H]2c2nncs2)nc2ccccc21", "> 99.5 µM"],
  ["COC(=O)c1cc(Cl)ccc1NS(=O)(=O)c1ccc(Oc2ccccc2Cl)cc1", "> 99.5 µM"],
  ["CNC(=O)[C@H](Nc1ccc(-c2nnn[nH]2)cc1)c1cc(Cl)cc(C2CC2)c1", "> 99.5 µM"],
  ["CC(C)N1CCc2nc(NC(=O)[C@H](NC(=O)OCc3ccccc3)c3ccc(OCc4ccccc4)cc3)sc2C1", "> 99.5 µM"],
  ["O=C(Nc1cc(Cl)cc(C(=O)N[C@H](c2nn[nH]n2)C2CCNCC2)c1)OCc1ccccc1", "> 99.5 µM"],
  ["COc1cc(Cc2ccnc(N3CCNCC3)c2)nc(N2CCNCC2)n1", "> 99.5 µM"],
  ["Cn1cc(N2CCN(Cc3c[nH]c4ccccc34)CC2)cn1", "> 99.5 µM"]
]}
